Where do the numbers come from? From the RNAGym collection of RNA variant scans (doi:10.1073/pnas.2313332121).

Collected polymerase ribozyme fitness (log ratio) values appear next to each entry.
B1: TPR 5TU (parent)
chain: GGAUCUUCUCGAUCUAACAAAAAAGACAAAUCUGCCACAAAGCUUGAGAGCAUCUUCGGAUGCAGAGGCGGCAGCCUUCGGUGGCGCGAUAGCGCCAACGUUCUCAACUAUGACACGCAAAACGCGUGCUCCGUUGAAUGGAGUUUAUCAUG

Variants of: B1
Assay: polymerase ribozyme fitness, log enrichment relative to wild type (log ratio); higher = more active; in vitro selection for triplet polymerase activity
This sample holds only a part of the variants without activity.
Readout name: polymerase ribozyme fitness (log ratio)

sequence_change="A39C U45A G48U C57G G70A G83C C96U A115G G141A" rel=≤ result=-4.2
sequence_change="G34A C57G G117A U144A" rel== result=-3.39
sequence_change="G34U A40G U55G U56A U101A U102G G126A" rel=≤ result=-4.2
sequence_change="A29G A30C G86U A137U" rel=≤ result=-4.2
sequence_change="A37C G86A C103A A120U" rel=≤ result=-4.2
sequence_change="A17U C57G C69A" rel== result=-2.58
sequence_change="G50U G94A" rel== result=-0.00242
sequence_change="C38U G81C U111G A138G" rel=≤ result=-4.2
sequence_change="A12U C105G" rel== result=-2.43
sequence_change="A29U A30C A49G C57U C87A G100A G141A" rel=≤ result=-4.2
sequence_change="A26U C96U C116G" rel== result=-1.18
sequence_change="A20U A23C C35U C75U C103G G136A" rel=≤ result=-4.2
sequence_change="U56A C85A" rel== result=-2.02
sequence_change="A23G C27G A40U C75U G81C G94C U101A U109A" rel=≤ result=-4.2
sequence_change="U56A G128C" rel== result=-2.8
sequence_change="A52G C96U U101A A142U A150G" rel=≤ result=-4.2
sequence_change="A73U C123U" rel== result=-0.392
sequence_change="A37U A98G" rel== result=-1.34
sequence_change="A21U C87U" rel== result=-0.254
sequence_change="U13G G65C G83A" rel=≤ result=-4.2
sequence_change="C18A A19C C35A" rel== result=-2.88
sequence_change="A60U C93U U151G" rel=≤ result=-4.2
